Listed below: pIC50 values for each entry.
Target: human Cot/Tpl2 kinase (Homo sapiens, UniProt P41279)
Construct: human Cot/Tpl2 kinase construct encoding residues 30-398; 6His (N); made in house; host or cells: Sf9 insect cells, baculovirus system (BD Biosciences)
Sequence (P41279 30-398): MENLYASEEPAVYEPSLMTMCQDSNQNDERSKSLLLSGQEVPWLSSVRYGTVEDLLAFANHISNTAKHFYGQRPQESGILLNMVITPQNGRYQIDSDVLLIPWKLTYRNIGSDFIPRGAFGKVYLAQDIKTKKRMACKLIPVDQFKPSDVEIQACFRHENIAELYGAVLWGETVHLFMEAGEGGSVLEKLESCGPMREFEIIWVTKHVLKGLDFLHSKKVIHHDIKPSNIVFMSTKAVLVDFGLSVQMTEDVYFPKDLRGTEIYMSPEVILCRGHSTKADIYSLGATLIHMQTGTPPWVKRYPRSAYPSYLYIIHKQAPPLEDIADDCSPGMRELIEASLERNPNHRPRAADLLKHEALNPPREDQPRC
Experiment: Tpl2/Cot kinase assay: GST-MEK1 phosphorylation detected by ELISA (DELFIA Eu)
Format: biochemical
Conditions: Tpl2/Cot kinase, GST-MEK1 substrate, 50 uM ATP, 1 h at 30° C.; Table 2
Method: Sf9 cells expressing the kinase were lysed in 50 mM NaPhosphate pH=8; 300 mM NaCl; 5 mM imidazole; 0.1 mM EGTA; 25 mM beta-glycerophosphate; 1% TX-100, 1% glycerol; 6 mM beta-mercaptoethanol and protease inhibitors. […] Tpl2/Cot activity was directly assayed using GST-MEK1 as a substrate. GST-MEK1 phosphorylation on serine residues 217 and 221 was detected by ELISA. […] After a final wash, Eu detection solution was added to each well and the Eu signal was measured in a Wallac Victor^2 Multilabel Counter. […]
pIC50: −log10 of the molar value.
assay.metric: pIC50

                                    compound  comparison_symbol  reported_measurement
 0  CC(C)NC1CCC(n2cc(CNc3cc(Cl)c4ncc(C#N)c(Nc5ccc(F)c(Cl)c5)c4c3)nn2)CC1 (centres unmarked)                  =                  7.70
 1  N#Cc1cnc2c(Cl)cc(NCc3cn(C4CCN(CC(F)(F)F)CC4)nn3)cc2c1Nc1ccc(F)c(Cl)c1                  =                  6.55
 2  CC(=O)N1CCC(n2cc(CNc3cc(Cl)c4ncc(C#N)c(Nc5ccc(F)c(Cl)c5)c4c3)nn2)CC1                  =                  8.48
 3  CC(C)(C)OC(=O)N1CCC(n2cc(COc3cc(Cl)c4ncc(C#N)c(Nc5ccc(F)c(Cl)c5)c4c3)nn2)CC1                  =                  6.28
 4  N#Cc1cnc2c(Cl)cc(N(Cc3cn(C4CCN(C(=O)OCCF)CC4)nn3)C(=O)OCCF)cc2c1Nc1ccc(F)c(Cl)c1                  <                  5.52
 5  CN(C)CCCc1csc(CNc2cc(Cl)c3ncc(C#N)c(Nc4ccc(F)c(Cl)c4)c3c2)c1                  =                  6.01
 6  CC(C)(C)OC(=O)N1CC=C(c2cncc(CNc3cc(Cl)c4ncc(C#N)c(Nc5ccc(F)c(Cl)c5)c4c3)c2)CC1                  <                  5.52
 7  N#Cc1cnc2c(Cl)cc(NCc3cn(C4CCNCC4)nn3)cc2c1NC1CCOCC1                  =                  5.96
 8  CC(C)(C)OC(=O)N1C2CCC1CC(n1cc(CNc3cc(Cl)c4ncc(C#N)c(Nc5ccc(F)c(Cl)c5)c4c3)nn1)C2 (centres unmarked)                  =                  6.52
 9  N#Cc1cnc2ccc(NCc3cn(CCN4CCCCCC4)nn3)cc2c1NC1CCCCC1                  =                  6.29
10  N#Cc1cnc2c(Cl)cc(NCc3cn(C4CC5CCC(C4)N5)nn3)cc2c1Nc1ccc(F)c(Cl)c1 (centres unmarked)                  =                  7.96
11  N#Cc1cnc2c(Cl)cc(NCc3cn(C4CCNCC4)nn3)cc2c1NC1CCC2(CCCCC2)CC1                  <                  5.52
12  N#Cc1cnc2c(Cl)cc(NCc3cn(C4CCN(c5ncccc5C(F)(F)F)CC4)nn3)cc2c1Nc1ccc(F)c(Cl)c1                  =                  6.31
13  N#Cc1cnc2c(Cl)cc(NCc3cn(C4CCC(O)CC4)nn3)cc2c1Nc1ccc(F)c(Cl)c1 (centres unmarked)                  =                  8.24
14  CN1C(C)(C)CC(n2cc(CNc3cc(Cl)c4ncc(C#N)c(Nc5ccc(F)c(Cl)c5)c4c3)nn2)CC1(C)C                  =                  7.28
15  CN1CCCC1CCn1cc(CNc2cc(Cl)c3ncc(C#N)c(NC4CCOCC4)c3c2)nn1 (centres unmarked)                  =                  5.95
16  N#Cc1cnc2c(Cl)cc(NCc3cn(CCN4CCCCCC4)nn3)cc2c1NC1CCC2(CCCCC2)CC1                  <                  5.52
17  N#Cc1cnc2c(Cl)cc(NCc3cn(C4CCOC4=O)nn3)cc2c1Nc1ccc(F)c(Cl)c1 (centres unmarked)                  =                  7.74
18  N#Cc1cnc2c(Cl)cc(NCc3cn(CCc4cccnc4)nn3)cc2c1Nc1ccc(F)c(Cl)c1                  =                  6.89
19  N#Cc1cnc2c(Cl)cc(NCc3cn(CCN4CCCCCC4)nn3)cc2c1NC1CCC1                  =                  6.36
20  CC(C)(C)OC(=O)N1CCC(n2cc(CNc3cc(Cl)c4ncc(C#N)c(NC5CCC5)c4c3)nn2)CC1                  =                  6.09
21  CC(C)(C)OC(=O)N1CCC(n2cc(CNc3cc(Cl)c4ncc(C#N)c(Nc5ccc(Oc6ccccc6)cc5)c4c3)nn2)CC1                  =                  6.40
22  N#Cc1cnc2c(Cl)cc(NCc3cn(C4CCCN(CC(F)(F)C(F)(F)F)CC4)nn3)cc2c1Nc1ccc(F)c(Cl)c1 (centres unmarked)                  <                  5.52
23  CC(C)N1CCC(n2cc(CNc3cc(Cl)c4ncc(C#N)c(NC5CCC5)c4c3)nn2)CC1                  =                  6.89
24  CCN1CCN(CCn2cc(CNc3cc(Cl)c4ncc(C#N)c(Nc5ccc(F)c(Cl)c5)c4c3)nn2)CC1                  =                  6.59
25  CN1CCCC1CCn1cc(CNc2cc(Cl)c3ncc(C#N)c(NC4CCCC4)c3c2)nn1 (centres unmarked)                  <                  5.52
26  N#Cc1cnc2c(Cl)cc(NCc3cn(CCN4CCCCCC4)nn3)cc2c1NC1CCCC1                  =                  6.20
27  CN1CCCC1CCn1cc(CNc2cc(Cl)c3ncc(C#N)c(Nc4ccc(Oc5ccccc5)cc4)c3c2)nn1 (centres unmarked)                  =                  6.08
28  N#Cc1cnc2c(Cl)cc(NCc3cn(C4CCN(C[C@@H](O)[C@H](O)CO)CC4)nn3)cc2c1Nc1ccc(F)c(Cl)c1                  =                  8.09
